B1: tRNA (parent)
chain: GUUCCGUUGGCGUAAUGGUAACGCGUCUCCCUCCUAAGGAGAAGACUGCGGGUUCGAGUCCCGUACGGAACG

variants of: B1; assay: yeast fitness relative to wild type (ratio to wild type); higher = fitter; tRNA-Arg(CCU), competitive growth, 37 C, YPD
This sample holds only a part of the variants without activity.
resultType: yeast fitness

Any idea what yeast fitness was measured for G52C C55U ?
0.522

Any idea what yeast fitness was measured for U3C C11U A65G ?
0.732

Any idea what yeast fitness was measured for U28G U32A G38C A65C G67C ?
≤ 0.5

Any idea what yeast fitness was measured for A45G A69U ?
1.01

Any idea what yeast fitness was measured for C11U G50A A69C ?
0.522

Any idea what yeast fitness was measured for G17A C31G G48A ?
≤ 0.5

Any idea what yeast fitness was measured for A15G G23C C30A A42C G51C ?
0.537

Any idea what yeast fitness was measured for C5G C11G A40G C60G ?
0.588

Any idea what yeast fitness was measured for G9A C27G C31U C49G G58C ?
≤ 0.5

Any idea what yeast fitness was measured for C4A U8C A14U A20C U28G ?
0.54

Any idea what yeast fitness was measured for G9A C62A C66U ?
≤ 0.5

Any idea what yeast fitness was measured for A42G U59C ?
0.714

Any idea what yeast fitness was measured for U2C U19C U54A A69C ?
≤ 0.5

Any idea what yeast fitness was measured for C22G U64C G68C ?
0.623

Any idea what yeast fitness was measured for G23A U47A ?
0.796

Any idea what yeast fitness was measured for U7C G10A U19A G44C G67C ?
≤ 0.5

Any idea what yeast fitness was measured for C4U G23A U28C G56C ?
≤ 0.5

Any idea what yeast fitness was measured for U16C C60G A65G ?
≤ 0.5

Any idea what yeast fitness was measured for C34U C46G G58C C60U C66G ?
≤ 0.5

Any idea what yeast fitness was measured for C4A A20G A37U C61A ?
≤ 0.5

Any idea what yeast fitness was measured for U13C A20G A37U C61A ?
≤ 0.5

Any idea what yeast fitness was measured for U16C G17C A21C C66U G68A ?
≤ 0.5

Any idea what yeast fitness was measured for G6C C24G C27G C29A C34U U53A A70G ?
≤ 0.5

Any idea what yeast fitness was measured for U3C G38A G48A ?
0.595

Any idea what yeast fitness was measured for C29G A40U G67C ?
0.517

Any idea what yeast fitness was measured for G18A G25A C29G C34A G63C ?
≤ 0.5

Any idea what yeast fitness was measured for U32A G52C C55U C61U C66U ?
≤ 0.5

Any idea what yeast fitness was measured for C55G G63C ?
0.636

Any idea what yeast fitness was measured for U2G A65C ?
0.897

Any idea what yeast fitness was measured for G25C G38C C60G ?
0.747

Any idea what yeast fitness was measured for C5U A70G ?
1.01

Any idea what yeast fitness was measured for A20C G23A C29U A36C A43C ?
≤ 0.5

Any idea what yeast fitness was measured for G12A C60A G67A ?
0.68

Any idea what yeast fitness was measured for G23C A65U ?
0.585

Any idea what yeast fitness was measured for A57U G67C ?
0.817

Any idea what yeast fitness was measured for U2G G18A C29G C31G G52A ?
≤ 0.5

Any idea what yeast fitness was measured for C46U G63A A69C ?
0.833

Any idea what yeast fitness was measured for C27U C34U G41C U47G ?
≤ 0.5

Any idea what yeast fitness was measured for C4G C34G ?
0.574

Any idea what yeast fitness was measured for C11A G38C ?
0.586

Any idea what yeast fitness was measured for A20C C30U C61A ?
≤ 0.5

Any idea what yeast fitness was measured for A40C A45C A65G G68U ?
≤ 0.5

Any idea what yeast fitness was measured for A15G C24G U26A G52A G67A G68C ?
0.561

Any idea what yeast fitness was measured for G23A C61A A70U ?
≤ 0.5

Any idea what yeast fitness was measured for A14G C22U C29A ?
≤ 0.5

Any idea what yeast fitness was measured for C27U U28A U32A C34U A36C ?
0.554

Any idea what yeast fitness was measured for G17C C31G A45C U54C C55A ?
≤ 0.5

Any idea what yeast fitness was measured for A14U U16C A21G C24U C46G C62U ?
≤ 0.5

Any idea what yeast fitness was measured for G18A C34U A36G ?
0.525

Any idea what yeast fitness was measured for A15C C29A G41A A43C ?
≤ 0.5

Any idea what yeast fitness was measured for G41C C66G ?
0.594

Any idea what yeast fitness was measured for U7G C11G C30G C33G G48C C60A ?
≤ 0.5

Any idea what yeast fitness was measured for G18C C55U ?
0.532

Any idea what yeast fitness was measured for C11G U13G C62G ?
≤ 0.5

Any idea what yeast fitness was measured for U2A A20G G58C ?
0.973

Any idea what yeast fitness was measured for G18C U26C U28A A65U ?
≤ 0.5

Any idea what yeast fitness was measured for G6C A43U ?
0.831

Any idea what yeast fitness was measured for U13C A20U G39C A43C C49A U53A ?
≤ 0.5

Any idea what yeast fitness was measured for C4A U35G ?
0.564

Any idea what yeast fitness was measured for G6C A15C G52C ?
≤ 0.5

Any idea what yeast fitness was measured for G9C U26C ?
0.612

Any idea what yeast fitness was measured for A14C A40C U64C ?
0.622

Any idea what yeast fitness was measured for G6C G12C A15U A21C C49U G51C U53C ?
≤ 0.5

Any idea what yeast fitness was measured for C33U A42C A70G ?
0.75

Any idea what yeast fitness was measured for G25C C60G ?
0.665

Any idea what yeast fitness was measured for U3G C27A ?
0.633

Any idea what yeast fitness was measured for C11G G23A C34G ?
≤ 0.5

Any idea what yeast fitness was measured for A15U G25C G67A ?
≤ 0.5

Any idea what yeast fitness was measured for C5U C11A A20C C22G C30U C31G C61A ?
0.543

Any idea what yeast fitness was measured for C46U G63C ?
0.753

Any idea what yeast fitness was measured for A57C G63C ?
0.601

Any idea what yeast fitness was measured for G12C A15U G25A ?
0.696

Any idea what yeast fitness was measured for C5U U32G G63C C66U ?
≤ 0.5

Any idea what yeast fitness was measured for G17C C24U A36G ?
0.607

Any idea what yeast fitness was measured for G6A C27G A45G ?
0.521

Any idea what yeast fitness was measured for C5U A21U G68A ?
≤ 0.5

Any idea what yeast fitness was measured for U2A C27U G67A ?
0.531

Any idea what yeast fitness was measured for G9A C62U A70U ?
0.68

Any idea what yeast fitness was measured for U2G G6A C31G C33U U59G C66U G68A ?
≤ 0.5

Any idea what yeast fitness was measured for G10A A20U A70C ?
0.579

Any idea what yeast fitness was measured for U8A G52C ?
≤ 0.5

Any idea what yeast fitness was measured for G6C G23C C24A C66U ?
≤ 0.5

Any idea what yeast fitness was measured for U26G G51A A65G ?
0.599

Any idea what yeast fitness was measured for C24A G51A C60U G67A ?
≤ 0.5

Any idea what yeast fitness was measured for A21C C29U A45U ?
0.521

Any idea what yeast fitness was measured for U26C U35G ?
0.615

Any idea what yeast fitness was measured for A15G A20G C49A C62U G63A ?
≤ 0.5

Any idea what yeast fitness was measured for G9A U26A A43U A65U ?
0.562

Any idea what yeast fitness was measured for C29A C34G A42C C49G G68A ?
≤ 0.5

Any idea what yeast fitness was measured for G10A G17A U28C C31G G67C ?
≤ 0.5

Any idea what yeast fitness was measured for G6C U16C C46G C62U C66U ?
≤ 0.5
